Quick reference: residual activity of the listed items.
# systemUnderTest: Death-associated protein kinase 3 (Homo sapiens) (UniProt O43293)
# Sequence (O43293 whole entry, looked up): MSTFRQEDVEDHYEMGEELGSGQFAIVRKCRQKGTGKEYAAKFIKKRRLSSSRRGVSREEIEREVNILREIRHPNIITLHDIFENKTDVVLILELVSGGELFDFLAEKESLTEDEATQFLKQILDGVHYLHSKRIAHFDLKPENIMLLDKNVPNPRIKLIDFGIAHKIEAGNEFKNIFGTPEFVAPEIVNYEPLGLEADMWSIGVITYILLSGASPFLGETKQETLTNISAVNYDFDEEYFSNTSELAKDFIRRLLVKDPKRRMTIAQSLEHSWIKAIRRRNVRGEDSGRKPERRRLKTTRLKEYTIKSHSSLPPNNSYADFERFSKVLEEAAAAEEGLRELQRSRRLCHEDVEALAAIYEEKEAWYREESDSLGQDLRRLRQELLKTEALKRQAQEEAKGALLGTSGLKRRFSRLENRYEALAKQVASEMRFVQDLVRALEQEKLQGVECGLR
# conditionContext: at 1 µM
experimentalEndpoint: residual activity (%)

| smilesInput | measuredResult |
| --- | --- |
| COc1cc2ncnc(N3CCN(C(=O)Nc4ccc(Oc5ccccc5)cc4)CC3)c2cc1OC | 105 |
| Oc1ccc(-c2nc(-c3ccc(F)cc3)c(-c3ccncc3)[nH]2)cc1 | 121 |
| Oc1ccc(Nc2nc(-c3ccc(Cl)cc3)cs2)cc1 | 110 |
| CC[n+]1c(/C=C/N(C)c2ccccc2)n(-c2ccccc2)c2ccc(-c3nc4ccccc4s3)cc21 | 100 |
| CO[C@@H]1[C@H](N(C)C(=O)c2ccccc2)C[C@H]2O[C@]1(C)n1c3ccccc3c3c4c(c5c6ccccc6n2c5c31)C(=O)NC4 | 56 |

* * *

# systemUnderTest: Casein kinase II (Homo sapiens) (UniProt P67870+P68400+P19784)
# Sequence (P19784 whole entry, looked up): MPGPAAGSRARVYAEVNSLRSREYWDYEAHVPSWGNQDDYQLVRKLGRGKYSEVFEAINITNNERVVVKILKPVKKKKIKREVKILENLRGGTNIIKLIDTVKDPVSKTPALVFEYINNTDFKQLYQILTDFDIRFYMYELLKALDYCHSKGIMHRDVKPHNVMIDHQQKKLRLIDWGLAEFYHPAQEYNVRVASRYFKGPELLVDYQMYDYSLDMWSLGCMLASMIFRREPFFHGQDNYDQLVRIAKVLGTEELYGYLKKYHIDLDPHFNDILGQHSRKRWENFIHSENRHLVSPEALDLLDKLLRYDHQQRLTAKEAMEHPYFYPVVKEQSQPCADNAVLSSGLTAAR
# Sequence (P67870 whole entry, looked up): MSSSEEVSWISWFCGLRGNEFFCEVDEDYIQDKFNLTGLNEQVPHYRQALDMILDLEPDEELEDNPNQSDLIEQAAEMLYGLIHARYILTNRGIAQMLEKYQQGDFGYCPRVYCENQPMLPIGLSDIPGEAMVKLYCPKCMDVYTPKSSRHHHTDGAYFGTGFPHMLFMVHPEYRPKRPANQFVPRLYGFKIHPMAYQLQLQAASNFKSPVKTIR
# Sequence (P68400 whole entry, looked up): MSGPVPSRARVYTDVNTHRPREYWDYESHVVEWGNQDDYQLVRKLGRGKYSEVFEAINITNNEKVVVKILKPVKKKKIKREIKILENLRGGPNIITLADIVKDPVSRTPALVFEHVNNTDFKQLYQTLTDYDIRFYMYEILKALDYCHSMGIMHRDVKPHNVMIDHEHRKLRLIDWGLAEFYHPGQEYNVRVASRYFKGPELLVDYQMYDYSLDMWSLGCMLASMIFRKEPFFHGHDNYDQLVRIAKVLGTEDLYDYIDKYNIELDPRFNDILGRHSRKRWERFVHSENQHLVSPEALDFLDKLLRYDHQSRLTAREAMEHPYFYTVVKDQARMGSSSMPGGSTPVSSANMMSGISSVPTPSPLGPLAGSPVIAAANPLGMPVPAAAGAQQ
# conditionContext: at 10 µM
# Description: Millipore: Percentage of residual kinase activity of CSNK2A1 at 10uM relative to control. Control inhibitor: Jnk Inhibitor II at 100.0uM. Buffer: 20 mM HEPES pH 7.6, 0.15 M NaCl, 0.1 mM EDTA, 5 mM DTT, 0.1% Triton X-100

| compound | systemUnderTest | residual activity / % |
| --- | --- | --- |
| O=C1Nc2ccccc2/C1=C1/Nc2ccccc2/C1=N\OCCC(O)CO (configuration not stated) | Casein kinase II (Homo sapiens) (UniProt P67870+P68400+P19784) | 22 |
| COc1cc2ncnc(N3CCN(C(=O)Nc4ccc(Oc5ccccc5)cc4)CC3)c2cc1OC | Casein kinase II (Homo sapiens) (UniProt P67870+P68400+P19784) | 105 |
| Nc1nc(Nc2ccc(S(N)(=O)=O)cc2)nn1C(=S)Nc1c(F)cccc1F | Casein kinase II (Homo sapiens) (UniProt P67870+P68400+P19784) | 85 |
| NC(=O)c1ccc2[nH]c(-c3ccc(Oc4ccc(Cl)cc4)cc3)nc2c1 | Casein kinase II (Homo sapiens) (UniProt P67870+P68400+P19784) | 92 |
| O=C(Nc1cccc(Nc2nccc(Nc3cccc(C(F)(F)F)c3)n2)c1)C1CC1 | Casein kinase II (Homo sapiens) (UniProt P67870+P68400+P19784) | 109 |
| Cn1nc2c3c(cccc31)C(=O)c1ccccc1-2 | Casein kinase II (Homo sapiens) (UniProt P67870+P68400+P19784) | 59 |
| CNc1cc2c(Nc3cccc(Br)c3)ncnc2cn1 | Casein kinase II (Homo sapiens) (UniProt P67870+P68400+P19784) | 89 |
| COc1ccc(C(=O)Nc2sc3c(c2C(N)=O)CCCC3)cc1OC | Casein kinase II (Homo sapiens) (UniProt P67870+P68400+P19784) | 115 |
| CC#CC(=O)Nc1cc2c(Nc3ccc(F)c(Cl)c3)ncnc2cn1 | Casein kinase II (Homo sapiens) (UniProt P67870+P68400+P19784) | 114 |
| O=C(O)c1ccc2c3c1cccc3c(=O)n1c3ccccc3nc21 | Casein kinase II (Homo sapiens) (UniProt P67870+P68400+P19784) | -4 |
| CC(C)n1cnc2/c(=N/c3cccc(Cl)c3)nc(NCCO)[nH]c21 | Casein kinase II (Homo sapiens) (UniProt P67870+P68400+P19784) | 86 |
| Cc1ccc(S(=O)(=O)/C=C/C#N)cc1 | Casein kinase II (Homo sapiens) (UniProt P67870+P68400+P19784) | 98 |
| Cc1ccc(NC2=CC(=O)c3sc(C)nc3C2=O)cc1 | Casein kinase II (Homo sapiens) (UniProt P67870+P68400+P19784) | 101 |
| O=C1NC(=O)/C(=C\c2ccc3nccnc3c2)S1 | Casein kinase II (Homo sapiens) (UniProt P67870+P68400+P19784) | -12 |
| Nc1cccc(-c2cc3c(Oc4cccc(O)c4)ncnc3[nH]2)c1 | Casein kinase II (Homo sapiens) (UniProt P67870+P68400+P19784) | 105 |
| CC[n+]1c(/C=C/N(C)c2ccccc2)n(-c2ccccc2)c2ccc(-c3nc4ccccc4s3)cc21 | Casein kinase II (Homo sapiens) (UniProt P67870+P68400+P19784) | 105 |
| O=C1Nc2cc(Br)ccc2/C1=C1/Nc2ccccc2/C1=N\O | Casein kinase II (Homo sapiens) (UniProt P67870+P68400+P19784) | 86 |
| CO[C@@H]1[C@H](N(C)C(=O)c2ccccc2)C[C@H]2O[C@]1(C)n1c3ccccc3c3c4c(c5c6ccccc6n2c5c31)C(=O)NC4 | Casein kinase II (Homo sapiens) (UniProt P67870+P68400+P19784) | 97 |
| Cc1cc(Nc2nc(-c3ccccc3)nc3ccccc23)n[nH]1 | Casein kinase II (Homo sapiens) (UniProt P67870+P68400+P19784) | -2 |
| COc1ccc(S(=O)(=O)N(CCO)c2ccccc2CN(C)C/C=C/c2ccc(Cl)cc2)cc1 | Casein kinase II (Homo sapiens) (UniProt P67870+P68400+P19784) | 94 |
| CC(=O)O/N=C1\C(=C2\C(=O)Nc3cc(Br)ccc32)Nc2ccccc21 | Casein kinase II (Homo sapiens) (UniProt P67870+P68400+P19784) | 90 |
| N#C/C(=C(\N)Sc1ccc(N)cc1)c1ccccc1C(F)(F)F | Casein kinase II (Homo sapiens) (UniProt P67870+P68400+P19784) | 99 |

Entry source: ChEMBL document CHEMBL2218924
